- Measurement protocol: Aqueous solubility
- Assay type: physicochemical
- Measurement parameters: water (aqueous); read-out: S
Quantity measured: solubility

[[record]]
compound = "C[C@@H]1CN(c2c(F)c(N)c3c(=O)c(C(=O)O)cn(C4CC4)c3c2F)C[C@H](C)N1"
result = "0.09 mg/mL"

[[record]]
compound = "Cl.Nc1c(F)c(N2CC[C@H](N)C2)c(F)c2c1c(=O)c(C(=O)O)cn2C1CC1.O"
result = "2.5 mg/mL"

[[record]]
compound = "NC1CCN(c2nc3c(cc2F)c(=O)c(C(=O)O)cn3-c2ccc(F)cc2F)C1 (configuration not stated)"
result = "0.65 mg/mL"

[[record]]
compound = "Cl.NCCCC[C@H](N)C(=O)NC1CCN(c2cc3c(cc2F)c(=O)c(C(=O)O)cn3C2CC2)C1.O (some centres not stated)"
result = "93 mg/mL"

[[record]]
compound = "Cl.NCCCC[C@H](N)C(=O)NC1CCN(c2nc3c(cc2F)c(=O)c(C(=O)O)cn3C2CC2)C1.O (some centres not stated)"
result = "> 300 mg/mL"

[[record]]
compound = "Cl.NCC(=O)NC1CCN(c2c(F)c(N)c3c(=O)c(C(=O)O)cn(C4CC4)c3c2F)C1.O (configuration not stated)"
result = "17 mg/mL"

[[record]]
compound = "C[C@H](N)C(=O)NC1CCN(c2cc3c(cc2F)c(=O)c(C(=O)O)cn3C2CC2)C1.Cl.O (some centres not stated)"
result = "> 100 mg/mL"

[[record]]
compound = "Cl.NCC(=O)NC1CCN(c2nc3c(cc2F)c(=O)c(C(=O)O)cn3C2CC2)C1.O (configuration not stated)"
result = "> 200 mg/mL"

[[record]]
compound = "NC(=O)CC[C@H](N)C(=O)NC1CCN(c2nc3c(cc2F)c(=O)c(C(=O)O)cn3C2CC2)C1 (some centres not stated)"
result = "6.1 mg/mL"

[[record]]
compound = "C[C@H](N)C(=O)N[C@H]1CCN(c2nc3c(cc2F)c(=O)c(C(=O)O)cn3C2CC2)C1.Cl.O"
result = "> 350 mg/mL"

[[record]]
compound = "C[C@H](N)C(=O)N[C@H]1CCN(c2c(F)cc3c(=O)c(C(=O)O)cn(C4CC4)c3c2F)C1.Cl.O"
result = "33 mg/mL"

[[record]]
compound = "C[C@@H](N)C(=O)NC1CCN(c2cc3c(cc2F)c(=O)c(C(=O)O)cn3C2CC2)C1.Cl.O (some centres not stated)"
result = "> 100 mg/mL"

[[record]]
compound = "C[C@H](N)C(=O)N[C@@H]1CCN(c2c(F)c(N)c3c(=O)c(C(=O)O)cn(C4CC4)c3c2F)C1.Cl.O"
result = "21 mg/mL"

[[record]]
compound = "C[C@H](N)C(=O)N[C@@H]1CCN(c2nc3c(cc2F)c(=O)c(C(=O)O)cn3C2CC2)C1.Cl.O"
result = "> 200 mg/mL"

[[record]]
compound = "Cl.N[C@@H](Cc1ccccc1)C(=O)NC1CCN(c2c(F)cc3c(=O)c(C(=O)O)cn(C4CC4)c3c2F)C1.O (some centres not stated)"
result = "31 mg/mL"

[[record]]
compound = "Cl.Nc1c(F)c(N2CC[C@@H](N)C2)c(F)c2c1c(=O)c(C(=O)O)cn2C1CC1.O"
result = "2.8 mg/mL"

[[record]]
compound = "Cl.N[C@@H]1CCN(c2c(F)cc3c(=O)c(C(=O)O)cn(C4CC4)c3c2F)C1.O"
result = "11 mg/mL"


====

- Tested on: Enterococcus faecalis
- Measurement protocol: In vitro antibacterial activity against gram positive Enterococcus faecalis MGH-2.
- Format: functional
Quantity measured: MIC (µg/mL)

[[record]]
compound = "Cl.NCC(=O)NC1CCN(c2c(F)cc3c(=O)c(C(=O)O)cn(C4CC4)c3c2F)C1.O (stereo not given)"
quantity_measured = "MIC"
output_unit = "µg/mL"
quantitative_result = 0.4

[[record]]
compound = "Cl.NCCCC[C@H](N)C(=O)NC1CCN(c2c(F)cc3c(=O)c(C(=O)O)cn(C4CC4)c3c2F)C1.O (stereo not given in full)"
quantity_measured = "MIC"
output_unit = "µg/mL"
quantitative_result = 6.3

[[record]]
compound = "NC1CCN(c2nc3c(cc2F)c(=O)c(C(=O)O)cn3C2CC2)C1 (stereo not given)"
quantity_measured = "MIC"
output_unit = "µg/mL"
quantitative_result = 0.2

[[record]]
compound = "Cl.NCC(=O)NC1CCN(c2cc3c(cc2F)c(=O)c(C(=O)O)cn3C2CC2)C1.O (stereo not given)"
quantity_measured = "MIC"
output_unit = "µg/mL"
quantitative_result = 1.6

[[record]]
compound = "C[C@H](N)C(=O)NC1CCN(c2cc3c(cc2F)c(=O)c(C(=O)O)cn3C2CC2)C1.Cl.O (stereo not given in full)"
quantity_measured = "MIC"
output_unit = "µg/mL"
quantitative_result = 1.6

[[record]]
compound = "C[C@@H](N)C(=O)NC1CCN(c2c(F)cc3c(=O)c(C(=O)O)cn(C4CC4)c3c2F)C1.Cl.O (stereo not given in full)"
quantity_measured = "MIC"
output_unit = "µg/mL"
quantitative_result = 0.025

[[record]]
compound = "C[C@@H]1CN(c2c(F)c(N)c3c(=O)c(C(=O)O)cn(C4CC4)c3c2F)C[C@H](C)N1 [SPARFLOXACIN]"
quantity_measured = "MIC"
output_unit = "µg/mL"
quantitative_result = 0.1

[[record]]
compound = "N[C@@H]1CCN(c2nc3c(cc2F)c(=O)c(C(=O)O)cn3C2CC2)C1"
quantity_measured = "MIC"
output_unit = "µg/mL"
quantitative_result = 0.2

[[record]]
compound = "Cl.N[C@H]1CCN(c2c(F)cc3c(=O)c(C(=O)O)cn(C4CC4)c3c2F)C1.O"
quantity_measured = "MIC"
output_unit = "µg/mL"
quantitative_result = 0.025

[[record]]
compound = "Cl.N[C@@H](Cc1ccccc1)C(=O)NC1CCN(c2cc3c(cc2F)c(=O)c(C(=O)O)cn3C2CC2)C1.O (stereo not given in full)"
quantity_measured = "MIC"
output_unit = "µg/mL"
quantitative_result = 0.4

[[record]]
compound = "Cl.NC1CCN(c2cc3c(cc2F)c(=O)c(C(=O)O)cn3C2CC2)C1.O (stereo not given)"
quantity_measured = "MIC"
output_unit = "µg/mL"
quantitative_result = 0.1

[[record]]
compound = "CC(C)[C@H](N)C(=O)NC1CCN(c2nc3c(cc2F)c(=O)c(C(=O)O)cn3C2CC2)C1.Cl.O (stereo not given in full)"
quantity_measured = "MIC"
output_unit = "µg/mL"
quantitative_result = 1.6

[[record]]
compound = "C[C@H](N)C(=O)N[C@H]1CCN(c2c(F)c(N)c3c(=O)c(C(=O)O)cn(C4CC4)c3c2F)C1.Cl.O"
quantity_measured = "MIC"
output_unit = "µg/mL"
quantitative_result = 0.2

[[record]]
compound = "C[C@H](N)C(=O)NC1CCN(c2nc3c(cc2F)c(=O)c(C(=O)O)cn3C2CC2)C1.Cl.O (stereo not given in full)"
quantity_measured = "MIC"
output_unit = "µg/mL"
quantitative_result = 1.6

[[record]]
compound = "Cl.N[C@@H](Cc1ccccc1)C(=O)NC1CCN(c2c(F)cc3c(=O)c(C(=O)O)cn(C4CC4)c3c2F)C1.O (stereo not given in full)"
quantity_measured = "MIC"
output_unit = "µg/mL"
quantitative_result = 25

[[record]]
compound = "N[C@H]1CCN(c2nc3c(cc2F)c(=O)c(C(=O)O)cn3C2CC2)C1"
quantity_measured = "MIC"
output_unit = "µg/mL"
quantitative_result = 0.1

[[record]]
compound = "Cl.N[C@@H](Cc1ccccc1)C(=O)NC1CCN(c2nc3c(cc2F)c(=O)c(C(=O)O)cn3C2CC2)C1.O (stereo not given in full)"
quantity_measured = "MIC"
output_unit = "µg/mL"
quantitative_result = 0.8

[[record]]
compound = "C[C@@H](N)C(=O)NC1CCN(c2nc3c(cc2F)c(=O)c(C(=O)O)cn3C2CC2)C1.Cl.O (stereo not given in full)"
quantity_measured = "MIC"
output_unit = "µg/mL"
quantitative_result = 0.2

[[record]]
compound = "NC1CCN(c2nc3c(cc2F)c(=O)c(C(=O)O)cn3-c2ccc(F)cc2F)C1 (stereo not given) [TOSUFLOXACIN]"
quantity_measured = "MIC"
output_unit = "µg/mL"
quantitative_result = 0.1

[[record]]
compound = "Cl.NCC(=O)NC1CCN(c2c(F)c(N)c3c(=O)c(C(=O)O)cn(C4CC4)c3c2F)C1.O (stereo not given)"
quantity_measured = "MIC"
output_unit = "µg/mL"
quantitative_result = 0.4


====

- Target entity: DNA gyrase (Escherichia coli) (UniProt P0AES6+P0AES4)
- Measurement protocol: In vitro concentration inhibiting DNA gyrase induced cleavage in Escherichia coli H560.
- Type: functional
Cleavage values for the compounds below.
Quantity measured: Cleavage

[[record]]
compound = "C[C@H](N)C(=O)N[C@@H]1CCN(c2c(F)c(N)c3c(=O)c(C(=O)O)cn(C4CC4)c3c2F)C1.Cl.O"
target_entity = "DNA gyrase (Escherichia coli) (UniProt P0AES6+P0AES4)"
result = "5 µg/mL"

[[record]]
compound = "C[C@H](N)C(=O)NC1CCN(c2nc3c(cc2F)c(=O)c(C(=O)O)cn3C2CC2)C1.Cl.O (some centres undefined)"
target_entity = "DNA gyrase (Escherichia coli) (UniProt P0AES6+P0AES4)"
result = "0.75 µg/mL"

[[record]]
compound = "Cl.NCC(=O)NC1CCN(c2cc3c(cc2F)c(=O)c(C(=O)O)cn3C2CC2)C1.O (centres undefined)"
target_entity = "DNA gyrase (Escherichia coli) (UniProt P0AES6+P0AES4)"
result = "2.5 µg/mL"

[[record]]
compound = "N[C@@H]1CCN(c2nc3c(cc2F)c(=O)c(C(=O)O)cn3C2CC2)C1"
target_entity = "DNA gyrase (Escherichia coli) (UniProt P0AES6+P0AES4)"
result = "0.5 µg/mL"

